Target Under Test: CDK7/cyclinH/MAT1 trimeric complex (Homo sapiens, UniProt P50613)
Sequence (P50613 whole entry): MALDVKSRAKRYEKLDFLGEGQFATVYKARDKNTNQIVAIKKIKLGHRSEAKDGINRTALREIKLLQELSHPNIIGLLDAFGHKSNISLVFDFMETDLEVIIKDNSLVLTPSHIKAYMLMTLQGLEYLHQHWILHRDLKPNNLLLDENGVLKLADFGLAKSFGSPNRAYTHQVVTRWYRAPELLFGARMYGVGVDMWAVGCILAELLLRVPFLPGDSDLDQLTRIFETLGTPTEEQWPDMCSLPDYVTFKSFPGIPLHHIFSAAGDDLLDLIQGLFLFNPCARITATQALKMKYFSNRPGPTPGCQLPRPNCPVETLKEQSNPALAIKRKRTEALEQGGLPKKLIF
Sequence (P51946 whole entry partner): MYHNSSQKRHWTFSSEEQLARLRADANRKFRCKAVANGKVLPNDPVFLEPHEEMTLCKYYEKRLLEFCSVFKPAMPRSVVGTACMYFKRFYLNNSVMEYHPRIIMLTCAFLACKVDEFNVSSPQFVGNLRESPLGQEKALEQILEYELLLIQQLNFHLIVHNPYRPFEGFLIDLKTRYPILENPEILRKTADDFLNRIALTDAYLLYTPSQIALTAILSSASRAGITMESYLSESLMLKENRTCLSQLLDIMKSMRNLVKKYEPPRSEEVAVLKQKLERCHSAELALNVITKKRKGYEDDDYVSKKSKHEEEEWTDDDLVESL
Sequence (P51948 whole entry partner): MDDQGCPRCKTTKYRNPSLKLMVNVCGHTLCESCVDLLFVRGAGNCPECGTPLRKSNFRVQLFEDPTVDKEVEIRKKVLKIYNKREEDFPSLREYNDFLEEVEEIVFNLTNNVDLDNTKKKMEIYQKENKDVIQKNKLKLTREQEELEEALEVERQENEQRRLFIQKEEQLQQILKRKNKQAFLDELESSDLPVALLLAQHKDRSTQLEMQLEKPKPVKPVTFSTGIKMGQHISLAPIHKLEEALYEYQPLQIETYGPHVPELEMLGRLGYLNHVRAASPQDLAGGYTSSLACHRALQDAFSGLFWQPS
Experiment Notes: In vitro CDK7 assay, potency of irreversible covalent inhibitors (kinact/KI), coupled PK/LDH ADP readout at 340 nm
Measurement Setup: CDK7 (20 nM enz.) (KI, μM), 20 nM enzyme
Response field label: string, one of true (1) (Ki strictly below 0.04 µM) or false (0).

Prompt: Input CC#CC(=O)N1CC(N2CCC(c3cc4c(c(C#N)n3)O[C@@H](C)c3c(N5CCOCC5)ccnc3N4)CC2)C1 (single isomer, unassigned) [Compound 542] ; condition: Ki strictly below 0.04 µM. Does it hold?
Response: true (1)

Prompt: Threshold test, Ki < 0.04 µM: C=CC(=O)N1CCC(N2CC(c3cc4c(c(C)n3)OCc3c(N5CCOCC5)ccnc3N4)C2)CC1 [Compound 303]
Response: false (0)

Prompt: Just wondering, is Ki of C=C(C(=O)N1CC(N2CCC(c3cc4c(c(C)n3)O[C@@H](C)c3c(N5CCOCC5)ccnc3N4)CC2)C1)n1cccn1 (single isomer, unassigned) [Compound 523] below 0.04 µM?
Response: false (0)

Continuing:
Prompt: Field: below-cutoff. Rule: recorded Ki strictly less than 0.04 µM. Subject: C=CC(=O)N1CC[C@@H](N2CC(c3cc(C)c4c(c3)Nc3nccc(C5CCOCC5)c3CO4)C2)[C@H](F)C1 (racemic) [Compound 206]
Response: false (0)

Prompt: Lab note: confirm whether the reported Ki for this compound is below 0.04 µM, equality not counting. compound: CC#CC(=O)N1CC(N2CCC(c3cc4c(c(C)n3)O[C@H](C)c3c(-c5cnn(C)c5)ccnc3N4)CC2)C1 (single isomer, unassigned) [Compound 541]
Response: true (1)

Prompt: Item C=CC(=O)N1CCN(C2CCN(c3cc4c(c(C)n3)OCc3c(N5CCOCC5)ccnc3N4)CC2)CC1 [Compound 391] : Ki beneath 0.04 µM, strictly?
Response: true (1)

###

// values below are reported kinact
Target Under Test: CDK7/cyclinH/MAT1 trimeric complex (Homo sapiens, UniProt P50613)
Experiment Notes: In vitro CDK7 assay, potency of irreversible covalent inhibitors (kinact/KI), coupled PK/LDH ADP readout at 340 nm
Measurement Setup: read-out: CDK7 (20 nM enz.) (kinact, s^−1), 20 nM enzyme
I only need the number, in s⁻¹, no unit after it.

The compound identified as C=CC(=O)N1CCN(C2CCN(c3cc4c(c(C)n3)OCc3c(N5CCOCC5)ccnc3N4)CC2)CC1 [Compound 391] registered its kinact at 2.25e-05

In plain terms, CC#CC(=O)N1CCC(N2CC(c3cc4c(c(C5CC5)n3)O[C@H](C)c3c(N5CCOCC5)ccnc3N4)C2)CC1 (single isomer, unassigned) [Compound 376] has a documented kinact of 9.41e-05

---
The measured kinact associated with C=CC(=O)N1CCC(N2CC(c3cc(F)c4c(c3)Nc3nccc(C5CCOCC5)c3[C@@H](C)O4)C2)CC1 (single isomer, unassigned) [Compound 153] reads 3.67e-05

###

The entries below are paired with their reported kinact.
Target Under Test: CDK7/cyclinH/MAT1 trimeric complex (Homo sapiens)
Experiment Notes: In vitro CDK7 assay, potency of irreversible covalent inhibitors (kinact/KI), coupled PK/LDH ADP readout at 340 nm
Measurement Setup: read-out: CDK7 (kinact, s^−1), kinact = maximal rate of inactivation; 1 mM ATP, room temperature; averaged values over all measurements
Use s⁻¹ as the unit, but write only the number.

Examples with their reported kinact follow.
Record C=CC(=O)N1CC(N2CCC(c3ccc4c(c3)Nc3nccc(N5CCOC[C@@H]5C)c3CO4)CC2)C1 (single isomer, unassigned) . Reported kinact: 0.000102

// kinact value for C=CC(=O)N1CC(N2CCCC(c3ccc4c(c3)Nc3nccc(N5CCOCC5)c3CO4)C2)C1 (stereo not shown) : 6.41e-05

GET /value?item= O=C(/C=C/CN1CCOCC1)N1CC(N2CCC(c3ccc4c(c3)Nc3nccc(N5CCOCC5)c3CO4)CC2)C1 &field=kinact returns 0.000129

Entry C=CC(=O)N1CC(N2CCC(c3ccc4c(c3)OCc3c(-c5cnn(C)c5)ccnc3N4)CC2)C1 ; kinact = 0.000166

More entries:
Documented kinact of C=CC(=O)N1CC(N2CCC(c3ccc4c(c3)Nc3ncc(C)c(N5CCOCC5)c3CO4)CC2)C1 : 0.00011

Per the record, C=CC(=O)N1CC(c2cc(-c3ccc4c(c3)Nc3nccc(N5CCOCC5)c3CO4)ccn2)C1 has kinact of 5.76e-05

For reference, reported kinact for C=CC(=O)Nc1ccc(C(=O)Nc2ccc3c(c2)Nc2ncc(C)c(C4CCOCC4)c2CO3)cc1 stands at 7.86e-05
